Target sequence: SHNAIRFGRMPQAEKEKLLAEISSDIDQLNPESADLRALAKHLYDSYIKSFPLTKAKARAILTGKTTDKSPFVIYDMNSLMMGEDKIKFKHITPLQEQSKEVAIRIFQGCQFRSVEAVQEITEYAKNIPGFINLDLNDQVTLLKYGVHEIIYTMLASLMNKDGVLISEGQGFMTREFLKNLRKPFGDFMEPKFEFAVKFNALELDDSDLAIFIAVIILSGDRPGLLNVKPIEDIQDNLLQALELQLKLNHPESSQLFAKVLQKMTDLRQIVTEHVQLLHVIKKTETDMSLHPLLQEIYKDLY
QUANTITY_NAME: IC50 (µM)
A number alone suffices; assume µM.

Prompt line: Give me measured IC50, please, for this compound: CCOC(Cc1cccc2c1ccn2Cc1nc(-c2ccc(C(C)C)cc2)oc1C)C(=O)O (racemic) [Example 2]
Response line: 0.053

* * *

TARGET_OR_SYSTEM: PPARγ (Mus musculus, UniProt P37238)
ASSAY_NOTES: Luciferase transcriptional reporter gene assay, pFA-PPARγ-LBD in BHK21 cells
The reader will find reported EC50 values listed item by item below.
A number alone suffices; assume nM.

Completed entries (count: 2):
[
  {
    "COMPOUND": "CCOC(Cc1cccc2c1ccn2Cc1nc(-c2cc(OC)cc(OC)c2)oc1C)C(=O)O (racemic) [Example 1]",
    "EC50 / nM": 7
  },
  {
    "COMPOUND": "CCOC(Cc1cccc2c1ccn2Cc1nc(-c2ccc(C(C)C)cc2)oc1C)C(=O)O (racemic) [Example 2]",
    "EC50 / nM": 93
  }
]

// moving on: another record for EC50
Prompt line: Give me measured EC50, please, for this compound: CCOC(Cc1cccc2c1ccn2Cc1nc(-c2ccc(C(F)(F)F)cc2)oc1C)C(=O)O (racemic) [Example 10]
Response line: 140

Recorded values, source patent US7098228B2.
